# Tested on: KRAS G12C-dependent Ba/F3 cells
# Assay Info: Ba/F3 proliferation assay, KRAS G12C
# Format: cell-based
# Condition Details: Mus musculus, BaF3, 72 h, AlamarBlue
Endpoint: log10(IC50) (log10 of the value in nM)

Compound Structure String	System Under Test	log10(IC50)
C[C@H](Oc1cc([C@@H]2CCOC2)nc(-c2onc3c2CCC[C@@]32CCCc3sc(N)c(C#N)c32)n1)[C@@H]1CCCN1C	KRAS G12C-dependent Ba/F3 cells	0.95
C[C@H]1CN(C)CCCN1c1cc(N2CCN(C)CC2)nc(-c2noc3c2CCC[C@@]32CCCc3sc(N)c(C#N)c32)n1	KRAS G12C-dependent Ba/F3 cells	3.02
C[C@H](Oc1cc(-c2cnsc2)nc(-c2noc3c2CCC[C@@]32CCCc3sc(N)c(C#N)c32)n1)[C@@H]1CCCN1C	KRAS G12C-dependent Ba/F3 cells	1.00
C[C@H](Oc1cc(N2CCN(C)C3(CC3)C2)nc(-c2noc3c2CCC[C@@]32CCCc3sc(N)c(C#N)c32)n1)[C@@H]1C[C@@H](F)CN1C	KRAS G12C-dependent Ba/F3 cells	2.52
C[C@H](Oc1cc(-n2cc(Cn3cncn3)nn2)nc(-c2noc3c2CCC[C@@]32CCCc3sc(N)c(C#N)c32)n1)[C@@H]1CCCN1C	KRAS G12C-dependent Ba/F3 cells	0.95
C[C@H]1CN(C)CCCN1c1nc(-c2noc3c2CCC[C@@]32CCCc3sc(N)c(C#N)c32)cc(N2CCN(C)C3(CC3)C2)n1	KRAS G12C-dependent Ba/F3 cells	2.92
C[C@H](Oc1cc([C@@H]2CCN(C)C2)nc(-c2noc3c2CCC[C@@]32CCCc3sc(N)c(C#N)c32)n1)[C@@H]1CCCN1C	KRAS G12C-dependent Ba/F3 cells	2.12
C[C@H](Oc1cc(-n2ccc(C(=O)N(C)C3COC3)n2)nc(-c2noc3c2CCC[C@@]32CCCc3sc(N)c(C#N)c32)n1)[C@@H]1CCCN1C	KRAS G12C-dependent Ba/F3 cells	0.60
C[C@H](Oc1cc(-n2cc3c(n2)CN(C)C3)nc(-c2noc3c2CCC[C@@]32CCCc3sc(N)c(C#N)c32)n1)[C@@H]1CCCN1C	KRAS G12C-dependent Ba/F3 cells	2.01
C[C@H](Oc1cc(N2CCNC3(CC3)C2)nc(-c2onc3c2CCC[C@@]32CCCc3sc(N)c(C#N)c32)n1)[C@@H]1CCCN1C	KRAS G12C-dependent Ba/F3 cells	2.09
C[C@H](Oc1cc(N2CCN(C)C2=O)nc(-c2noc3c2CCC[C@@]32CCCc3sc(N)c(C#N)c32)n1)[C@@H]1CCCN1C	KRAS G12C-dependent Ba/F3 cells	1.41
C[C@H](Oc1cc(C2=CCNCC2)nc(-c2noc3c2CCC[C@@]32CCCc3sc(N)c(C#N)c32)n1)[C@@H]1CCCN1C	KRAS G12C-dependent Ba/F3 cells	2.38
C[C@H](Oc1cc(N2CCOC3(CC3)C2)nc(-c2noc3c2CCC[C@@]32CCCc3sc(N)c(C#N)c32)n1)[C@@H]1CCCN1C	KRAS G12C-dependent Ba/F3 cells	1.67

* * *

# Assay Info: Plasma protein binding assay (PPB), equilibrium dialysis, 10% FCS in PBS
# Assay type: in vitro ADME
# Condition Details: bovine, read-out: PPB 10% FCS (% fu)
fraction unbound by entry:
Endpoint: fraction unbound

Compound Structure String	Value Measured
C[C@H](Oc1cc(-n2ccc(C#N)n2)nc(-c2noc3c2CCC[C@@]32CCCc3sc(N)c(C#N)c32)n1)[C@@H]1CCCN1C	0.04
C[C@H](Oc1cc(N2CCN(CCO)CC2)nc(-c2noc3c2CCC[C@@]32CCCc3sc(N)c(C#N)c32)n1)[C@@H]1CCCN1C	0.17
C[C@H](NC(=O)c1ccn(-c2cc(O[C@@H](C)[C@@H]3CCCN3C)nc(-c3noc4c3CCC[C@@]43CCCc4sc(N)c(C#N)c43)n2)n1)c1ccccn1	0.03

* * *

fraction unbound by entry:
# Assay Info: Plasma protein binding assay (PPB), equilibrium dialysis, 10% FCS in PBS
# Assay type: in vitro ADME
# Condition Details: bovine, read-out: PPB 10% FCS (% fu)
# Method: Binding of test compounds to plasma was determined using equilibrium dialysis (ED) and quantitative mass spectrometry interfaced with liquid chromatography (LC-MS). […] After incubation, protein was precipitated from aliquots of each chamber and the concentration of test compound in the supernatant of the plasma-containing compartment (Cserum) and of the buffer-containing compartment (Cbuffer) was determined by LC-MS. […]
Endpoint: fraction unbound

Compound Structure String	Value Measured
CO[C@H]1CCN(C)[C@@H]1[C@H](C)Oc1cc(-n2ccc(C(=O)N[C@@H]3CCOC3)n2)nc(-c2onc3c2CCC[C@@]32CCCc3sc(N)c(C#N)c32)n1	0.05
C[C@H](Oc1cc(-c2ccn(C3COC3)n2)nc(-c2noc3c2CCC[C@@]32CCCc3sc(N)c(C#N)c32)n1)[C@@H]1C[C@H](F)CN1C	0.18
C[C@H](Oc1cc(-n2ccc(-c3cnccn3)n2)nc(-c2noc3c2CCC[C@@]32CCCc3sc(N)c(C#N)c32)n1)[C@@H]1CCCN1C	0.03
C[C@H](Oc1cc(-n2cc3c(n2)CNC3)nc(-c2noc3c2CCC[C@@]32CCCc3sc(N)c(C#N)c32)n1)[C@@H]1C[C@@H](F)CN1C	0.1
COC(=O)c1ccc(-c2cc(O[C@@H](C)[C@@H]3CCCN3C)nc(-c3noc4c3CCC[C@@]43CCCc4sc(N)c(C#N)c43)n2)o1	0.07
C[C@H](O)Cn1ccc(-c2cc(O[C@@H](C)[C@@H]3CCCN3C)nc(-c3noc4c3CCC[C@@]43CCCc4sc(N)c(C#N)c43)n2)n1	0.41

* * *

MBI 3A4 by entry:
# System Under Test: CYP3A4 (Homo sapiens (Human))
# Sequence (P08684 whole entry): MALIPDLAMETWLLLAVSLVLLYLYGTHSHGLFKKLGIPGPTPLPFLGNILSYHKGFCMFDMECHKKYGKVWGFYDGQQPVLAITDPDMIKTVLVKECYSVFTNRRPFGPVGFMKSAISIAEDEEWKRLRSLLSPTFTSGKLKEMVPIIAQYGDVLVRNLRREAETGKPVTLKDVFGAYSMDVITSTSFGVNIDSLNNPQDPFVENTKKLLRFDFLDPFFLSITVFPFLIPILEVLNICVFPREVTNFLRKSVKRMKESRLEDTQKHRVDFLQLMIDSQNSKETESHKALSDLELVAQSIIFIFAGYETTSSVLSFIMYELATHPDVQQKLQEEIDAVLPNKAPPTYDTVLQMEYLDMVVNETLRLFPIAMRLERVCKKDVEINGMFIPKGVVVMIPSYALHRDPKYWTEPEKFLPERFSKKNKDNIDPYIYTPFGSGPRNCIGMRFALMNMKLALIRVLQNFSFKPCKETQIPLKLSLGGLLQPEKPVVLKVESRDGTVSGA
# Assay Info: Mechanism based inhibition of CYP3A4 assay (MBI 3A4)
# Format: in vitro ADME
# Condition Details: hydroxy-midazolam formation after 30 min vs 0 min preincubation, 25 uM, human liver microsomes
# Procedure: After preincubation, the incubate is diluted 1:10 and the substrate midazolam is added for the main incubation (15 min). The main incubation is quenched with acetonitrile and the formation of hydroxy-midazolam is quantified via LC/MS-MS. The formation of hydroxy-midazolam from the 30 min preincubation relative to the formation from the 0 min preincubation is used as a readout. […]

Compound	MBI 3A4
C[C@H](Oc1cc(-n2cc3c(n2)CCN(C)C3)nc(-c2noc3c2CCC[C@@]32CCCc3sc(N)c(C#N)c32)n1)[C@@H]1CCCN1C [II-141]	88%
C[C@H](Oc1cc(N2CCC[C@H](O)C2)nc(-c2noc3c2CCC[C@@]32CCCc3sc(N)c(C#N)c32)n1)[C@@H]1CCCN1C [II-57]	61%
C[C@H](Oc1cc(-n2ccnc2)nc(-c2onc3c2CCC[C@@]32CCCc3sc(N)c(C#N)c32)n1)[C@@H]1CCCN1C [I-20]	85%
C[C@H](Oc1cc(N2CC[C@H](N(C)C)C2)nc(-c2onc3c2CCC[C@@]32CCCc3sc(N)c(C#N)c32)n1)[C@@H]1CCCN1C [I-11]	78%
C[C@H](Oc1cc(N2CCN[C@@H](C)C2)nc(-c2noc3c2CCC[C@@]32CCCc3sc(N)c(C#N)c32)n1)[C@@H]1CCCN1C [II-162]	84%
C[C@H](Oc1cc(N2CCNC3(COC3)C2)nc(-c2noc3c2CCC[C@@]32CCCc3sc(N)c(C#N)c32)n1)[C@@H]1CCCN1C [II-31]	65%

* * *

pIC50 by entry:
# System Under Test: KRAS (G12C)::SOS1 (Homo sapiens (Human), UniProt P01116, C118S/C51S/C80L/G12C)
# Sequence (P01116 other isoform, or with tags, fused parts or gaps G12C/C51S/C80L/C118S): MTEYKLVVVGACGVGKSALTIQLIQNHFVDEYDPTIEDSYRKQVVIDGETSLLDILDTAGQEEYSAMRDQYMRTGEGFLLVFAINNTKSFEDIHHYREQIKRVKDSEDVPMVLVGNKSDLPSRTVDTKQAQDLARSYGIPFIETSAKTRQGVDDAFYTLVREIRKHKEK
# Assay Info: KRAS::SOS1 AlphaScreen binding assay, KRAS G12C
pIC50: −log10 of the molar value.
Endpoint: pIC50

Compound Structure String	Value Measured
C[C@H](Oc1cc(N2CC[C@@H](N(C)C)C2)nc(-c2noc3c2CCC[C@@]32CCCc3sc(N)c(C#N)c32)n1)[C@@H]1CCCN1C	8.40
C[C@H](Oc1cc(N2CCN[C@@H](C)C2)nc(-c2noc3c2CCC[C@@]32CCCc3sc(N)c(C#N)c32)n1)[C@@H]1CCCN1C	8.52
C[C@H](Oc1cc(-n2ccc(-c3cnccn3)n2)nc(-c2noc3c2CCC[C@@]32CCCc3sc(N)c(C#N)c32)n1)[C@@H]1CCCN1C	8.70
CO[C@@H]1C[C@@H]([C@H](C)Oc2cc(-c3ccn(C4COC4)n3)nc(-c3noc4c3CCC[C@@]43CCCc4sc(N)c(C#N)c43)n2)N(C)C1	8.70
C[C@H](Oc1cc(-c2ccn(C[C@@H](C)O)n2)nc(-c2onc3c2CCC[C@@]32CCCc3sc(N)c(C#N)c32)n1)[C@@H]1CCCN1C	8.70
C[C@H](Oc1cc(-c2ccn(C3COC3)n2)nc(-c2onc3c2CCC[C@@]32CCCc3sc(N)c(C#N)c32)n1)[C@@H]1CCCN1C	8.70

src = patent US20240174690A1
